Taken from PubChem BioAssay AID2644.

- Tested on: MAGI-CCR5 cells, HIV-1 Ba-L, beta-gal luminescence, 48 h
- assay_name: HIV-1 replication inhibition, CCR5-tropic virus, SAR follow-up, cell-based, HIV-1 Ba-L, beta-gal reporter, 5%/10% serum (AID 2644)
In this section, each of the compounds is paired with its reported pIC50.
Lab note: report pIC50 as minus log10 of the concentration in molar units, number only.

>  <compound>
Cc1c(Cl)cccc1NS(=O)(=O)c1ccc2c(c1)C1C=CCC1C(c1ccc(C(=O)O)cc1)N2 (stereo not given)

>  <pIC50>
4.78

$$$$
>  <compound>
O=C(O)CCCN1C(=O)/C(=C/c2ccc(-c3nc4ccccc4s3)o2)SC1=S

>  <pIC50>
4.09

$$$$
>  <compound>
COc1cc(/C=C2\SC(=O)N(c3ccccc3Cl)C2=O)cc([N+](=O)[O-])c1O

>  <pIC50>
4.86

$$$$

Q: Write down pIC50 measured for item CCOC(=O)c1sc(N2C(=O)C(O)=C(C(=O)c3ccc(C)o3)C2c2cccc([N+](=O)[O-])c2)nc1C (stereo not given)
Result: 4.69

Q: Write down pIC50 measured for item COC(=O)c1sc(-c2ccc(C(C)(C)C)cc2)cc1NC(=O)c1ccccc1C(=O)O
Result: 4.30

* * *

- Tested on: MAGI-CCR5 cells, HIV-1 Ba-L, beta-gal luminescence, 48 h
- assay_name: HIV-1 replication inhibition, CCR5-tropic virus, SAR follow-up, cell-based, HIV-1 Ba-L, beta-gal reporter, 5%/10% serum (AID 2644)
Active and inactive are the calls of the source.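 The calls were made as follows: active = compounds cutting the HIV-1 infection reporter signal by at least 50%; inactive = the rest.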
One label from this list, please: 1.0 for active, 0.0 for inactive

>  <molecule>
O=C1NC(=S)N(c2ccc(F)cc2)C(=O)/C1=C\c1ccoc1

>  <class_label>
0.0

$$$$
>  <molecule>
O=C(O)c1ccccc1N=Nc1c(O)[nH]c2ccc([N+](=O)[O-])cc12

>  <class_label>
0.0

$$$$
>  <molecule>
CCOC(=O)C1=C(C)N=c2sc(=Cc3ccc(OCC(=O)O)cc3)c(=O)n2C1c1ccc(OC(C)C)cc1 (stereo unspecified)

>  <class_label>
1.0

$$$$
>  <molecule>
O=C(N/N=C/c1c(O)n(C2CCCCC2)c(=S)[nH]c1=O)c1ccccc1O

>  <class_label>
1.0

$$$$
>  <molecule>
CCC(Sc1nc2ccsc2c(=O)n1Cc1ccc(C(=O)O)cc1)C(=O)Nc1ccc(C)c(Cl)c1 (stereo unspecified)

>  <class_label>
1.0

$$$$
>  <molecule>
CCOc1cc(/C=C2\SC(=O)N(CC(=O)Nc3ccccc3F)C2=O)cc([N+](=O)[O-])c1O

>  <class_label>
1.0

$$$$
>  <molecule>
CC(C)NC(=O)c1sc(=S)n2c1[nH]c(=O)c1ccc(C(=O)NCCc3ccc(Cl)cc3)cc12

>  <class_label>
1.0

$$$$
>  <molecule>
CCC(C)(C)C1CCc2c(sc(NC(=O)c3ccccc3C(=O)O)c2C#N)C1 (stereo unspecified)

>  <class_label>
0.0

$$$$

Q: Lab log entry: CC(C)(C)c1cc(-c2csc(Nc3ccccc3)[n+]2Cc2ccc(C(=O)O)cc2)cc(C(C)(C)C)c1O — outcome as called in the assay?
Result: 1.0

Q: Lab log entry: Cc1c2c(=O)n(-c3nc4ccccc4s3)nc-2cc(O)n1Cc1ccccc1 — outcome as called in the assay?
Result: 1.0

Q: Lab log entry: N#C/C(=C\c1ccc(O)c([N+](=O)[O-])c1)c1nc2ccccc2s1 — outcome as called in the assay?
Result: 1.0

* * *

- System: MAGI-CCR5 cells, HIV-1 Ba-L, beta-gal luminescence, 48 h
- assay_name: HIV-1 replication inhibition, CCR5-tropic virus, SAR follow-up, cell-based, HIV-1 Ba-L, beta-gal reporter, 5%/10% serum (AID 2644)
The source made the active and inactive calls.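 How the source made its calls: active means compounds cutting the HIV-1 infection reporter signal by at least 50%; inactive means the rest.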
One label from this list, please: active, inactive

See these solved cases before continuing.
>  <sample_smiles>
CSc1nnc(-c2ccccc2N=Cc2c(C)[nH]n(-c3ccc4ccccc4c3)c2=O)c(=O)[nH]1

>  <class_label>
active

$$$$
>  <sample_smiles>
COc1cc(/C=N/NS(=O)(=O)c2ccc3ccccc3c2)ccc1OCc1ccc(C(=O)O)cc1

>  <class_label>
inactive

$$$$
>  <sample_smiles>
Oc1c(Cl)cc(Cl)c(Cl)c1Cc1c(O)c(Cl)cc(Cl)c1Cl

>  <class_label>
active

$$$$

Q: Lab log entry: N#C/C(=C\c1ccc(OCc2ccc(Cl)cc2)cc1)C(=O)Nc1cccc(C(=O)O)c1 — outcome as called in the assay?
Result: inactive

Q: Lab log entry: O=[N+]([O-])c1cc([N+](=O)[O-])c2oc(-c3ccccc3)c(Br)c2c1O — outcome as called in the assay?
Result: active
